# protocol text: Waters ACQUITY UPLC BEH C18, 100 × 2.1 mm, 1.7 µm, 40 °C, 0.3 to 0.4 mL/min, estimated dead time 0.63 min; A: water + 0.1% formic acid; B: methanol + 0.1% formic acid; gradient (min/%B) 0/0.5 0.1/0.5 10/80 10.1/99.5 12/99.5
# test conditions: stereoisomer not certain
readout name: LC retention time (min)
Give your result in min as a bare value.

Exercise: Would you kindly share the measured LC retention time for O=C(C=Cc1ccc(O)cc1)OCC1OC(Oc2c(-c3ccc(O)cc3)oc3cc(O)cc(O)c3c2=O)C(O)C(O)C1O (stereo not drawn) ?
Key: 5.21

Exercise: Would you kindly share the measured LC retention time for CC1CCC2C(C)C3C(CC4C5CC=C6CC(O)CCC6(C)C5CC(O)C43CO)N2C1 (stereo not drawn) ?
Key: 3.7

Exercise: Would you kindly share the measured LC retention time for NC(CCC(=O)NC(Cc1ccc(O)cc1)C(=O)O)C(=O)O (stereo not drawn) ?
Key: 2.36

Exercise: Would you kindly share the measured LC retention time for O=c1cc(-c2ccc(O)c(O)c2)oc2c(C3OCC(O)C(O)C3O)c(O)c(C3OC(CO)C(O)C(O)C3O)c(O)c12 (stereo not drawn) ?
Key: 3.35

Exercise: Would you kindly share the measured LC retention time for CC(CSCC(NC(=O)CCC(N)C(=O)O)C(=O)NCC(=O)O)C(=O)O (stereo not drawn) ?
Key: 2.36

Exercise: Would you kindly share the measured LC retention time for CC1CCC2(C(=O)O)CCC3(C)C(=CCC4C5(C)CC(O)C(O)C(C)(C)C5CCC43C)C2C1C (stereo not drawn) ?
Key: 9.89

Exercise: Would you kindly share the measured LC retention time for COc1ccc(C2CC(=O)c3c(O)cc(O)cc3O2)cc1O (stereo not drawn) ?
Key: 6.04

Exercise: Would you kindly share the measured LC retention time for COc1cc(C=CC(=O)OC2C(OC3C(Oc4ccc(-c5cc(=O)c6c(O)cc(O)cc6o5)cc4)OC(C(=O)O)C(O)C3O)OC(C(=O)O)C(O)C2O)ccc1O (stereo not drawn) ?
Key: 4.76

###

# protocol text: Waters ACQUITY UPLC BEH C18, 100 × 2.1 mm, 1.7 µm, 40 °C, 0.3 to 0.4 mL/min, estimated dead time 0.63 min; A: water + 0.1% formic acid; B: methanol + 0.1% formic acid; gradient (min/%B) 0/0.5 0.1/0.5 10/80 10.1/99.5 12/99.5
# test conditions: stereoisomer not certain
readout name: LC retention time (min)
Give your result in min as a bare value.

Exercise: Would you kindly share the measured LC retention time for CN1Cc2c(ccc3c2OCO3)C2C(O)Cc3cc4c(cc3C21)OCO4 (stereo not drawn) ?
Key: 4.53

Exercise: Would you kindly share the measured LC retention time for CCC1C(=O)OCc2c1cc1n(c2=O)Cc2cc3ccccc3nc2-1 (stereo not drawn) ?
Key: 5.77

Exercise: Would you kindly share the measured LC retention time for COc1cc(C=CNC(=O)C=Cc2ccc(O)c(OC)c2)ccc1O ?
Key: 4.38

Exercise: Would you kindly share the measured LC retention time for O=c1cc(-c2ccc(OC3OC(CO)C(O)C(O)C3O)c(O)c2)oc2cc(O)cc(O)c12 (stereo not drawn) ?
Key: 4.45

Exercise: Would you kindly share the measured LC retention time for NC(=O)CN1CC2CC(C1)c1cccc(=O)n1C2 (stereo not drawn) ?
Key: 2.18

Exercise: Would you kindly share the measured LC retention time for C=CC1CN2CCC1CC2C(O)c1ccnc2ccccc12 (stereo not drawn) ?
Key: 3.09

Exercise: Would you kindly share the measured LC retention time for O=c1c(O)c(-c2ccc(O)c(O)c2)oc2cc(O)cc(O)c12 ?
Key: 5.37

Exercise: Would you kindly share the measured LC retention time for COc1cc(C=CC(=O)OC2C(OC3C(Oc4c(-c5ccc(O)cc5)oc5cc(OC6OC(CO)C(OC7OC(CO)C(O)C(O)C7O)C(O)C6O)cc(O)c5c4=O)OC(CO)C(O)C3O)OC(CO)C(O)C2O)ccc1O (stereo not drawn) ?
Key: 4.01

Exercise: Would you kindly share the measured LC retention time for COc1ccc(-c2coc3cc(OC4OC(COC(=O)CC(=O)O)C(O)C(O)C4O)ccc3c2=O)cc1 (stereo not drawn) ?
Key: 5.43

Exercise: Would you kindly share the measured LC retention time for CC1OC(OC2C(OC3C(OC4CCC5(C)C(CCC6(C)C5CC=C5C7CC(C)(C)CC(=O)C7(C)CCC56C)C4(C)CO)OC(C(=O)O)C(O)C3O)OCC(O)C2O)C(O)C(O)C1O (stereo not drawn) ?
Key: 7.85

Exercise: Would you kindly share the measured LC retention time for CC1(C)CCC2(C(=O)O)CCC3(C)C(=CCC4C5(C)CCC(OC6OC(C(=O)O)C(O)C(OC7OC(CO)C(O)C(O)C7O)C6O)C(C)(CO)C5CCC43C)C2C1 (stereo not drawn) ?
Key: 7.55

Exercise: Would you kindly share the measured LC retention time for CCCCCC=CC=CC(CCCCCCCC(=O)O)OO (stereo not drawn) ?
Key: 8

Exercise: Would you kindly share the measured LC retention time for CC(C)CC(N)C(=O)NC(Cc1ccccc1)C(=O)O (stereo not drawn) ?
Key: 3.64

Exercise: Would you kindly share the measured LC retention time for CC1C2CCC3C4CC=C5CC(N(C)C)CCC5(C)C4CCC32CN1C (stereo not drawn) ?
Key: 3.35

Exercise: Would you kindly share the measured LC retention time for COC(=O)CC(OC(=O)C=Cc1cc(OC)c(O)c(OC)c1)C(=O)OC (stereo not drawn) ?
Key: 3.28

Exercise: Would you kindly share the measured LC retention time for C=CC1C(OC2OC(CO)C(O)C(O)C2O)OC=C2C(=O)N3Cc4c([nH]c5ccccc5c4=O)C3CC21 (stereo not drawn) ?
Key: 4.07

Exercise: Would you kindly share the measured LC retention time for C=CCSCC(NC(=O)CCC(N)C(=O)O)C(=O)O (stereo not drawn) ?
Key: 2.98

Exercise: Would you kindly share the measured LC retention time for C=CC1CN2CCC1CC2C(O)c1ccnc2ccc(OC)cc12 (stereo not drawn) ?
Key: 3.31
